assay: Cmax in Sprague-Dawley rat at 25 mg/kg, po by LC-MS/MS analysis; type: ADME, organism-based; set-up: dose 25 mg/kg, route po; details: in vivo
EXPERIMENTAL_READOUT: Cmax (ng/mL)
Give bare numbers, in ng/mL.

Cmax reading for COc1nc(O[C@H]2CCc3c(-c4cccc(C(=O)Nc5ccc(CNC[C@@H]6CCC(=O)N6)cn5)c4Cl)cccc32)c(Cl)cc1CNC[C@@H]1CCC(=O)N1 : 22.6

###

assay: Half life in Sprague-Dawley rat at 5 mg/kg, iv by LC-MS/MS analysis; type: ADME, organism-based; conditions: in vivo
EXPERIMENTAL_READOUT: half-life (h)
Give bare numbers, in h.

half-life reading for COc1nc(O[C@H]2CCc3c(-c4cccc(C(=O)Nc5ccc(CNC[C@@H]6CCC(=O)N6)cn5)c4Cl)cccc32)c(Cl)cc1CNC[C@@H]1CCC(=O)N1 : 5.3

###

biological target: Programmed cell death 1 ligand 1 (Homo sapiens, UniProt Q9NZQ7)
Sequence (Q9NZQ7 whole entry): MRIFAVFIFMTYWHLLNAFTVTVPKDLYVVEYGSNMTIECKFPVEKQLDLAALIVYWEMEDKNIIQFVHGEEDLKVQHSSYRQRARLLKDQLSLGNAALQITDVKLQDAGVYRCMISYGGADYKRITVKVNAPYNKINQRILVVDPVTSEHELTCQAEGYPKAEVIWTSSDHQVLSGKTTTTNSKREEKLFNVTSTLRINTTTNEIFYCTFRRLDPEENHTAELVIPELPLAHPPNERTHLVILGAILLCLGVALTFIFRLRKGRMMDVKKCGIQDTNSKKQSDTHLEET
EXPERIMENTAL_READOUT: Kd (nM)
Numbers only, in nM.

Kd reading for COc1nc(O[C@H]2CCc3c(-c4cccc(C(=O)Nc5ccc(CNC[C@@H]6CCC(=O)N6)cn5)c4Cl)cccc32)c(Cl)cc1CNC[C@@H]1CCC(=O)N1 : 24
